B1: Pistol ribozyme (parent)
chain: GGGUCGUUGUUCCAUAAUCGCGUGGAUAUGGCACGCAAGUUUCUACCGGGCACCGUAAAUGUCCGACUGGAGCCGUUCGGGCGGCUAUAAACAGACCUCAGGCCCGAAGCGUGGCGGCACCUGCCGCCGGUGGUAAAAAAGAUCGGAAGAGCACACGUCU

- Variants of: B1
- Protocol Details: aptazyme ON/OFF ratio, guanine; higher = stronger switching; co-transcriptional cleavage with and without guanine
Measured aptazyme ON/OFF ratio of individual entries
Could you keep your reply to the number by itself?

Guide cases for aptazyme ON/OFF ratio, answers given:
[
  {
    "Variant Name": "U7A U8G G9C U10G C13U",
    "aptazyme ON/OFF ratio": 1.17
  },
  {
    "Variant Name": "U7A U8A G9U U10C U11G C12G C13A",
    "aptazyme ON/OFF ratio": 1.15
  },
  {
    "Variant Name": "U7A U8C U11G C13A",
    "aptazyme ON/OFF ratio": 1.12
  },
  {
    "Variant Name": "U7A U8G G9A U10C U11G C12G",
    "aptazyme ON/OFF ratio": 1.33
  },
  {
    "Variant Name": "U7A U8C G9C U10A C13A",
    "aptazyme ON/OFF ratio": 1.09
  },
  {
    "Variant Name": "G9U U10C C13G",
    "aptazyme ON/OFF ratio": 1.13
  },
  {
    "Variant Name": "U7G U11G C13G",
    "aptazyme ON/OFF ratio": 1.08
  },
  {
    "Variant Name": "U7G U8G G9A U10C U11C",
    "aptazyme ON/OFF ratio": 1.08
  }
]

Measured aptazyme ON/OFF ratio, U7G U8C G9C U11C C13U : 1.38

Measured aptazyme ON/OFF ratio, U8G G9C C12G C13U : 1.05

Measured aptazyme ON/OFF ratio, U8C U11A C12U C13U : 1.13

Measured values drawn from the RNAGym collection of RNA variant scans (doi:10.1021/acssynbio.7b00057) for this set.
